test system: Streptococcus pneumoniae; assay: Antibacterial activity against Streptococcus pneumoniae 31002 after 24 hrs by agar dilution method; format: functional
Please respond with condition met when measured MIC is strictly beneath 2 µg/mL, and with condition not met in all other cases.

| molecule | className |
| --- | --- |
| C[C@H]1COc2c(CN3CCCC3)c(F)cc3c(=O)c(C(=O)O)cn1c23 | condition met |
| CN1CCN(Cc2c(F)cc3c(=O)c(C(=O)O)cn(C4CC4)c3c2F)CC1 | condition met |
| O=C(O)c1cn(C2CC2)c2c(F)c(Cn3ccnc3)c(F)cc2c1=O | condition met |
| CC1COc2c(CN3CCCC3)c(F)cc3c(=O)c(C(=O)O)cn1c23 (stereo not given) | condition not met |
| C[C@H]1COc2c(CN3CCN(C)CC3)c(F)cc3c(=O)c(C(=O)O)cn1c23 | condition met |
| O=C(O)c1cn(C2CC2)c2c(F)c(CNC3CCCCC3)c(F)cc2c1=O | condition met |
| C[C@H]1COc2c(CNC3CC3)c(F)cc3c(=O)c(C(=O)O)cn1c23 | condition met |
| O=C(O)c1cn(C2CC2)c2c(F)c(CNc3ccc(F)c(Cl)c3)c(F)cc2c1=O | condition met |
| Cc1ccc(NCc2c(F)cc3c(=O)c(C(=O)O)cn4c3c2OC[C@@H]4C)cc1 | condition met |
| CNCc1c(F)cc2c(=O)c(C(=O)O)cn3c2c1OCC3C (stereo not given) | condition not met |

###

MIC for assorted compounds
test system: Salmonella; assay: Antibacterial activity against […] 48107 after 24 hrs by agar dilution method; format: functional

| compound | limitOperator | MIC [µg/mL] |
| --- | --- | --- |
| O=C(O)c1cn(C2CC2)c2c(F)c(CNc3ccccc3)c(F)cc2c1=O | = | 0.39 |
| C[C@H]1COc2c(CNc3ccccc3)c(F)cc3c(=O)c(C(=O)O)cn1c23 | = | 0.78 |
| CNCc1c(F)cc2c(=O)c(C(=O)O)cn3c2c1OCC3C (stereo not given) | ≤ | 0.049 |
| C[C@H]1COc2c(CN3CCN(C)CC3)c(F)cc3c(=O)c(C(=O)O)cn1c23 | = | 1.56 |
| Cc1ccc(NCc2c(F)cc3c(=O)c(C(=O)O)cn4c3c2OC[C@@H]4C)cc1 | = | 1.56 |

###

system: Staphylococcus aureus; assay: Antibacterial activity against Staphylococcus aureus 26003 after 24 hrs by agar dilution method; assay type: functional

| molecule | limitOperator | MIC (µg/mL) |
| --- | --- | --- |
| O=C(O)c1cn(C2CC2)c2c(F)c(CNc3ccc(F)c(Cl)c3)c(F)cc2c1=O | = | 0.39 |
| Cc1ccc(NCc2c(F)cc3c(=O)c(C(=O)O)cn(C4CC4)c3c2F)cc1C | = | 0.39 |
| C[C@H]1COc2c(N3CCN(C)CC3)c(F)cc3c(=O)c(C(=O)O)cn1c23.C[C@H]1COc2c(N3CCN(C)CC3)c(F)cc3c(=O)c(C(=O)O)cn1c23.O | = | 0.78 |
| Cc1ccc(NCc2c(F)cc3c(=O)c(C(=O)O)cn4c3c2OC[C@@H]4C)cc1 | = | 0.78 |
| CCCCNCc1c(F)cc2c(=O)c(C(=O)O)cn(C3CC3)c2c1F | > | 6.25 |
| CC1COc2c(CN3CCCC3)c(F)cc3c(=O)c(C(=O)O)cn1c23 (stereo not given) | > | 6.25 |
| CCCNCc1c(F)cc2c(=O)c(C(=O)O)cn3c2c1OC[C@@H]3C | > | 6.25 |
| CN1CCN(Cc2c(F)cc3c(=O)c(C(=O)O)cn(C4CC4)c3c2F)CC1 | = | 12.5 |
| O=C(O)c1cn(C2CC2)c2c(F)c(CNC3CCCCC3)c(F)cc2c1=O | > | 6.25 |
| C[C@H]1COc2c(CN3CCCCC3)c(F)cc3c(=O)c(C(=O)O)cn1c23 | > | 6.25 |
| O=C(O)c1cn(C2CC2)c2c(F)c(CN3CCNCC3)c(F)cc2c1=O | = | 6.25 |
| Cc1ccc(NCc2c(F)cc3c(=O)c(C(=O)O)cn(C4CC4)c3c2F)cc1 | = | 0.39 |
| CC(C)CNCc1c(F)cc2c(=O)c(C(=O)O)cn(C3CC3)c2c1F | > | 6.25 |
| CNCc1c(F)cc2c(=O)c(C(=O)O)cn3c2c1OCC3C (stereo not given) | = | 3.13 |
| C[C@H]1COc2c(CNc3cccc(Cl)c3)c(F)cc3c(=O)c(C(=O)O)cn1c23 | = | 1.56 |
| CCCNCc1c(F)cc2c(=O)c(C(=O)O)cn(C3CC3)c2c1F | > | 6.25 |
| C[C@H]1COc2c(C3(N)CC3)c(F)cc3c(=O)c(C(=O)O)cn1c23 | = | 0.195 |
| CCNCc1c(F)cc2c(=O)c(C(=O)O)cn(CC)c2c1F | > | 6.25 |
| O=C(O)c1cn(C2CC2)c2c(F)c(CNc3ccccc3)c(F)cc2c1=O | = | 0.78 |
| C[C@H]1COc2c(CNc3ccc(Cl)cc3)c(F)cc3c(=O)c(C(=O)O)cn1c23 | = | 0.098 |

###

test system: Salmonella; assay: Antibacterial activity against […] 48107 after 24 hrs by agar dilution method; type: functional
Please respond with true when measured MIC is strictly beneath 0.4 µg/mL, and with false in all other cases.

| structureSmilesString | className |
| --- | --- |
| O=C(O)c1cn(C2CC2)c2c(F)c(CNc3ccc(F)c(Cl)c3)c(F)cc2c1=O | false |
| O=C(O)c1cn(C2CC2)c2c(F)c(CNc3cccc(Cl)c3)c(F)cc2c1=O | false |
| CN[C@H](CC(C)C)C(=O)N[C@H]1C(=O)N[C@@H](CC(N)=O)C(=O)N[C@H]2C(=O)N[C@H]3C(=O)N[C@H](C(=O)N[C@H](C(=O)O)c4cc(O)cc(O)c4-c4cc3ccc4O)[C@H](O)c3ccc(c(Cl)c3)Oc3cc2cc(c3O[C@@H]2O[C@H](CO)[C@@H](O)[C@H](O)[C@H]2O[C@H]2C[C@](C)(N)[C@H](O)[C@H](C)O2)Oc2ccc(cc2Cl)[C@H]1O | false |
| C[C@H]1COc2c(CNc3ccc(F)cc3)c(F)cc3c(=O)c(C(=O)O)cn1c23 | false |
| Cc1ccc(NCc2c(F)cc3c(=O)c(C(=O)O)cn(C4CC4)c3c2F)cc1C | false |
| CC(C)CNCc1c(F)cc2c(=O)c(C(=O)O)cn(C3CC3)c2c1F | true |
| CCCCNCc1c(F)cc2c(=O)c(C(=O)O)cn(C3CC3)c2c1F | true |
| CCN(Cc1c(F)cc2c(=O)c(C(=O)O)cn(C3CC3)c2c1F)c1ccccc1 | false |
| CN1CCN(Cc2c(F)cc3c(=O)c(C(=O)O)cn(C4CC4)c3c2F)CC1 | false |
| O=C(O)c1cn(C2CC2)c2c(F)c(CNC3CC3)c(F)cc2c1=O | true |
| O=C(O)c1cn(C2CC2)c2c(F)c(CNC3CCCCC3)c(F)cc2c1=O | true |
| Cc1cc(C)nc(NCc2c(F)cc3c(=O)c(C(=O)O)cn(C4CC4)c3c2F)c1 | false |

###

MIC for assorted compounds
system: Staphylococcus aureus; assay: Antibacterial activity against Staphylococcus aureus 26003 after 24 hrs by agar dilution method; format: functional

| compound | limitOperator | MIC, µg/mL |
| --- | --- | --- |
| O=C(O)c1cn(C2CC2)c2c(F)c(Cn3ccnc3)c(F)cc2c1=O | = | 6.25 |
| CCn1cc(C(=O)O)c(=O)c2cc(F)c(CNC)c(F)c21 | > | 6.25 |
| O=C(O)c1cn(C2CC2)c2c(F)c(CNc3ccc(F)cc3)c(F)cc2c1=O | = | 0.78 |
| CC1COc2c(CNc3ccc(Cl)cc3)c(F)cc3c(=O)c(C(=O)O)cn1c23 (centres undefined) | = | 0.195 |
| O=C(O)c1cn(C2CC2)c2c(F)c(CNc3ccc(Cl)cc3)c(F)cc2c1=O | = | 0.39 |
| C[C@H]1COc2c(CN(C)c3ccc(F)cc3)c(F)cc3c(=O)c(C(=O)O)cn1c23 | = | 3.13 |
| CC1COc2c(CN3CCCCC3)c(F)cc3c(=O)c(C(=O)O)cn1c23 (centres undefined) | > | 6.25 |
| CC1COc2c(Cn3ccnc3)c(F)cc3c(=O)c(C(=O)O)cn1c23 (centres undefined) | = | 3.13 |
| C[C@H]1COc2c(CNc3ccc(F)c(Cl)c3)c(F)cc3c(=O)c(C(=O)O)cn1c23 | = | 0.098 |
| O=C(O)c1cn(C2CC2)c2c(F)c(CNc3cccc(Cl)c3)c(F)cc2c1=O | = | 0.195 |
| CCNCc1c(F)cc2c(=O)c(C(=O)O)cn(C3CC3)c2c1F | > | 6.25 |
| Cc1cc(C)nc(NCc2c(F)cc3c(=O)c(C(=O)O)cn4c3c2OC[C@@H]4C)c1 | = | 0.78 |
| CCNCc1c(F)cc2c(=O)c(C(=O)O)cn3c2c1OC[C@@H]3C | > | 6.25 |
| Cc1cc(C)nc(NCc2c(F)cc3c(=O)c(C(=O)O)cn(C4CC4)c3c2F)c1 | = | 0.39 |
| C[C@H]1COc2c(CN3CCN(C)CC3)c(F)cc3c(=O)c(C(=O)O)cn1c23 | > | 6.25 |
| Cc1ccc(NCc2c(F)cc3c(=O)c(C(=O)O)cn4c3c2OC[C@@H]4C)cc1C | = | 3.13 |
| O=C(O)c1cn(C2CC2)c2c(F)c(CNC3CC3)c(F)cc2c1=O | = | 3.13 |
| C[C@H]1COc2c(CN3CCCC3)c(F)cc3c(=O)c(C(=O)O)cn1c23 | = | 6.25 |
| C[C@H]1COc2c(CNc3ccc(F)cc3)c(F)cc3c(=O)c(C(=O)O)cn1c23 | = | 0.78 |
